target: c-Abl kinase domain (Mus musculus); assay: pTyr-Var library bacterial peptide display kinase screen (enrichment scores); format: biochemical; conditions: fig5-data2, sheet "Abl"; Screen for the variant/reference peptide pair, pTyr-Var library;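 also: log2 fold change in enrichment of variant over reference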
Mark 1.0 only for Screen values smaller than 0.4; exact matches and larger values are 0.0.

{"residueString": "QKKPCYEIRWK [PDGFRB_Y562_R561C]", "targetSystem": "c-Abl kinase domain (Mus musculus)", "category": 1.0}
{"residueString": "SEHLIYLEFKS [RASGRP1_Y215_T214I]", "targetSystem": "c-Abl kinase domain (Mus musculus)", "category": 1.0}
{"residueString": "EAVKNYTEKRG [PBRM1_Y672_D674E]", "targetSystem": "c-Abl kinase domain (Mus musculus)", "category": 1.0}
{"residueString": "HNVPIYEGFGL [ACTA1_Y168_A172G_YF]", "targetSystem": "c-Abl kinase domain (Mus musculus)", "category": 1.0}
{"residueString": "ARKCKYFKKHE [NFIX_Y40_R38C]", "targetSystem": "c-Abl kinase domain (Mus musculus)", "category": 0.0}
{"residueString": "SENFTYIWWLN [PSG4_Y271_K267E_YF]", "targetSystem": "c-Abl kinase domain (Mus musculus)", "category": 0.0}
{"residueString": "EAGKVYLKAAM [CBFB_Y96_P100A]", "targetSystem": "c-Abl kinase domain (Mus musculus)", "category": 0.0}

====

system: EPHB2 kinase domain; experiment: pTyr-Var library bacterial peptide display kinase screen (enrichment scores); assay type: biochemical, human; conditions: sheet EPHB2; effect of variant peptide relative to its reference peptide in the pTyr-Var library screen (enrichment scores);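 also: log2 fold change in enrichment of variant over reference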
Mark rule met only for Screen values smaller than -0.4; exact matches and larger values are rule not met.

{"residueString": "QDLLLYQTHSE [PKHD1_Y255_F253L]", "category": "rule not met"}
{"residueString": "LVRAFYCERRW [CARD11_Y970_R975W]", "category": "rule met"}
{"residueString": "PHMQTYEVDHN [SDHB_Y61_L65H]", "category": "rule not met"}
{"residueString": "LTVVIYVLVGR [EPHA3_Y561_I564V]", "category": "rule met"}
{"residueString": "HNMPIYEGFAL [ACTA1_Y168_V165M_YF]", "category": "rule not met"}
{"residueString": "NKFTTYLPWLP [C9orf24_Y126_R129W_YF]", "category": "rule not met"}
{"residueString": "NVVQEYERVII [NPHS2_Y131_K126N]", "category": "rule not met"}

====

biological target: c-Src kinase domain (Homo sapiens); assay: pTyr-Var library bacterial peptide display kinase screen (enrichment scores); format: biochemical; details: sheet "Src"; effect of the variant peptide relative to its reference peptide in the pTyr-Var library screen;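 also: log2 fold change in enrichment of variant over reference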
Category key, based on recorded Screen: low-valued = under -0.6, mid-valued = from -0.6 up to 0.2, high-valued = 0.2 and over

{"residueString": "ACQSLYGGFVE [MVD_Y164_R161Q]", "category": "mid-valued"}
{"residueString": "REETTYLPLTS [ICAM3_Y527_S525T]", "category": "mid-valued"}
{"residueString": "KQQEIYQEVTQ [CD209_Y239_L242V]", "category": "mid-valued"}
{"residueString": "VDTGVYAVPPP [BCAR1_Y410_S407T]", "category": "mid-valued"}
{"residueString": "KFADVYVGICL [B3GALNT1_Y269_E266A]", "category": "low-valued"}
{"residueString": "KAEQLYIGVTV [EFHC2_Y509_E507Q]", "category": "mid-valued"}
{"residueString": "RQSTLYSFFPT [MSH6_Y8_K13T]", "category": "mid-valued"}
{"residueString": "LITTLYISFLG [KCNQ1_Y267_G269S]", "category": "low-valued"}
{"residueString": "QLQVFYATRDQ [MIPEP_Y579_L582R]", "category": "low-valued"}
{"residueString": "QPSALYEDRFL [ASS1_Y83_S79P_YF]", "category": "mid-valued"}
{"residueString": "NKFTTYLPWLP [C9orf24_Y126_R129W_YF]", "category": "high-valued"}
{"residueString": "PVQAVYQKVVA [HBB_Y131_A130V]", "category": "high-valued"}
{"residueString": "HNVPIYEGFGL [ACTA1_Y168_A172G_YF]", "category": "mid-valued"}
{"residueString": "GQLIVYAPPEW [CNTN6_Y315_F314V]", "category": "high-valued"}
{"residueString": "VKANTYEKFWL [GATM_Y100_P105L_YF]", "category": "low-valued"}
{"residueString": "VQEDIYDEFVV [ALDH2_Y332_E337V]", "category": "high-valued"}
{"residueString": "HNMPIYEGFAL [ACTA1_Y168_V165M_YF]", "category": "high-valued"}
{"residueString": "ENGPFYASFPP [GDAP2_Y488_T489A_YF]", "category": "mid-valued"}
{"residueString": "INPIIYAFVVE [CCR5_Y297_G301V]", "category": "low-valued"}
{"residueString": "LTTEAYEWEPC [ELMOD3_Y61_R66C]", "category": "high-valued"}
{"residueString": "SKLTIYDGRPS [MTM1_Y277_A279G]", "category": "low-valued"}
{"residueString": "RKETFYILSCR [GUCY2C_Y681_T682I]", "category": "low-valued"}
{"residueString": "QPRDIYHQTWA [GBA_Y244_G241R]", "category": "low-valued"}
{"residueString": "FVSLIYTNFEA [GSTP1_Y109_I105V_YF]", "category": "high-valued"}
{"residueString": "KGEDFYSVTCH [FHL1_Y149_C150S]", "category": "high-valued"}
